# Tested on: MDA-N
# assay.notes: NCI tumour cell line growth inhibition, 48 h
Activity calls are given as the source filed them. Rule as the data show it: active = GI50 up to about 1.1 µM and inactive = higher.
quantity: GI50

Problem: Bench note: what GI50 did `CN(C)c1ccc(/C=C/c2cc[n+](C)c3ccccc23)cc1` show?
Solution: 2.27 µM (inactive)

Problem: Bench note: what GI50 did CC(=O)C1=C(C)N(c2ccccc2)C2(O)C3=C(C(=O)c4ccccc4C3=O)C(O)=CC12Cl (stereo not drawn) show?
Solution: 2.94 µM (inactive)

Problem: Bench note: what GI50 did CC12C=CC(C)(C3C(=O)C4C(C(=O)C31)C1(C)C=CC4(C)[S+]1[O-])[S+]2[O-] (stereo not drawn) show?
Solution: > 100 µM (inactive)

Problem: Bench note: what GI50 did `Cc1cc(Nc2ccc(NS(C)(=O)=O)cc2)c2c(ccc3[nH]ccc32)n1` show?
Solution: 17.6 µM (inactive)

Problem: Bench note: what GI50 did CC(=O)OCCC1c2ccccc2-n2nc(-c3ccccc3)c(O)c21 (stereo not drawn) show?
Solution: 17.5 µM (inactive)

Problem: Bench note: what GI50 did COC(CCC[N+](C)(C)C)CC[N+](C)(C)C (stereo not drawn) show?
Solution: > 100 µM (inactive)

Problem: Bench note: what GI50 did `CSc1ncc2c(n1)sc1c(=O)n(-c3ccccc3)cnc12` show?
Solution: > 100 µM (inactive)

Problem: Bench note: what GI50 did `Clc1ccc2nc3[nH]nc(Cl)c3nc2c1` show?
Solution: 76.9 µM (inactive)

Problem: Bench note: what GI50 did O=c1ccc2ccc(O)cc2o1 [UMBELLIFERONE] show?
Solution: > 100 µM (inactive)

Problem: Bench note: what GI50 did `C=C(CN(C)C)C(=O)c1ccccc1[N+](=O)[O-]` show?
Solution: 14.5 µM (inactive)

Problem: Bench note: what GI50 did `O=C(CC(O)(C(F)(F)F)C(F)(F)F)c1cccs1` show?
Solution: > 10 µM (inactive)

Problem: Bench note: what GI50 did `C=CC[C@@H](N)C(=O)N(C)[C@@H](C)[C@@H](O)c1ccccc1` show?
Solution: > 100 µM (inactive)

Problem: Bench note: what GI50 did `CC(C)(C)c1cc(OCc2nnc(S)n2N)c(Cl)cc1OCc1nnc(S)n1N` show?
Solution: 41.3 µM (inactive)

Problem: Bench note: what GI50 did `O=C1Nc2ccccc2/C1=N/Nc1c(F)c(F)c(F)c(F)c1F` show?
Solution: 32.2 µM (inactive)

Problem: Bench note: what GI50 did `Cc1ccc(-n2c(C)n[nH]c2=O)cc1` show?
Solution: > 100 µM (inactive)

Problem: Bench note: what GI50 did CC1(C)OC2OC(COC(=O)c3ccc(C#N)cc3)C3OC(C)(C)OC3C2O1 (stereo not drawn) show?
Solution: > 75 µM (inactive)

Problem: Bench note: what GI50 did `C[N+]1(CCCCN2c3ccccc3Sc3cc(N=[N+]=[N-])ccc32)CCN(C(=O)CCNC(=O)Cc2ccc(C(=O)c3ccccc3)cc2)CC1` show?
Solution: 24.8 µM (inactive)

Problem: Bench note: what GI50 did `O=[N+]([O-])c1cc2oc(COc3ccccc3)nc2cc1Cl` show?
Solution: 25.9 µM (inactive)

Problem: Bench note: what GI50 did `Cn1c2ccccc2c2c3c(c4c5ccccc5n(C)c4c21)C(=O)N(c1ccccc1)C3=O` show?
Solution: > 100 µM (inactive)

Problem: Bench note: what GI50 did COC(=O)C1=C(O)C(C(=O)OC)[C@@]2(O)[C@@H](C(=O)OC)C(c3ccc(OC(=O)/C=C/c4ccccc4)cc3)C[C@@H]1[C@@H]2C(=O)OC (stereo partly drawn) show?
Solution: 3.24 µM (inactive)

Problem: Bench note: what GI50 did `CC(C)NC(=O)OCc1c(COC(=O)NC(C)C)c(-c2ccc[n+](COC(=O)C(C)C)c2)n2c1CCC2` show?
Solution: > 100 µM (inactive)

Problem: Bench note: what GI50 did Clc1ccc(COC(Cn2ccnc2)c2ccc(Cl)cc2Cl)cc1 (stereo not drawn) [ECONAZOLE] show?
Solution: 14.1 µM (inactive)

Problem: Bench note: what GI50 did `CC1(C)OC(=O)C(C)(C)C(=O)O1` show?
Solution: > 100 µM (inactive)

Problem: Bench note: what GI50 did `Oc1ccc2ccccc2c1/N=N/c1cccc2ccccc12` show?
Solution: > 100 µM (inactive)

Problem: Bench note: what GI50 did CC(=O)C1=C(C)N2C(=NC3=C(CCc4ccccc43)C2c2ccc(Cl)cc2)S1 (stereo not drawn) show?
Solution: 46.8 µM (inactive)

Problem: Bench note: what GI50 did COc1ccc(N[S+]([O-])c2ccc(OC)cc2)cc1 (stereo not drawn) show?
Solution: 41.3 µM (inactive)

Problem: Bench note: what GI50 did `Cc1ccc2c(c1)C(=O)/C(=C\c1ccccc1)CCS2(=O)=O` show?
Solution: 16.9 µM (inactive)

Problem: Bench note: what GI50 did `Cn1c2ccc([N+](=O)[O-])cc2c(=O)c2c(O)cc(O)cc21` show?
Solution: > 100 µM (inactive)

Problem: Bench note: what GI50 did `Nn1c(CCCCCCCCc2nnc(COc3c(O)ccc4ccccc34)n2N)nnc1COc1c(O)ccc2ccccc12` show?
Solution: > 100 µM (inactive)

Problem: Bench note: what GI50 did COc1cccc2c1cc([N+](=O)[O-])c1c(C(=O)O)cc3c(c12)OCO3 [ARISTOLOCHIC ACID] show?
Solution: > 100 µM (inactive)

Problem: Bench note: what GI50 did CC(C)(CCCCC(C)(C)NCC1COc2ccccc2O1)NCC1COc2ccccc2O1 (stereo not drawn) show?
Solution: 2.81 µM (inactive)

Problem: Bench note: what GI50 did `O=c1c2cc(Br)ccc2oc2ccc(Br)cc12` show?
Solution: > 100 µM (inactive)

Problem: Bench note: what GI50 did `CC(=O)CC(O)(C(F)(F)Cl)C(F)(F)Cl` show?
Solution: > 10 µM (inactive)

Problem: Bench note: what GI50 did `CCc1n[nH]c(=O)n1-c1ccc2ccccc2c1` show?
Solution: > 100 µM (inactive)

Problem: Bench note: what GI50 did `COC(=O)C1=NN2c3ccccc3CN([C@@H](C)c3ccccc3)C(=O)[C@@H]2[C@H]1c1ccccc1` show?
Solution: > 100 µM (inactive)

Problem: Bench note: what GI50 did `COc1ccc(/N=N/C(=N/NC(=O)c2ccc(C)cc2)c2ccc(N(CCC#N)CCC#N)cc2OC)cc1` show?
Solution: > 100 µM (inactive)

Problem: Bench note: what GI50 did COc1ccc2c(c1)nc1n2C(c2c(F)cccc2F)SC1 (stereo not drawn) show?
Solution: 40 µM (inactive)

Problem: Bench note: what GI50 did O=C1NC2(CCCCC2)N=C2C(Cl)CCCC12Cl (stereo not drawn) show?
Solution: > 100 µM (inactive)
